B1: PRPH (parent)
chain: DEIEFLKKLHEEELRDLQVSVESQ

# Variants of: B1
# testDetails: protein stability index of a GFP-peptide fusion (GPS, HEK-293T) (PSI 1-6); higher = more stable;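 note: lentivirally expressed fusions sorted by FACS into six bins by GFP to DsRed ratio, PSI derived from sequencing read proportions per bin multiplied by bin number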
# testConditions: c terminus: a fixed tail appended

variantDescription: K7R
protein stability index: 4.59

variantDescription: E11T
protein stability index: 4.46

variantDescription: L17I
protein stability index: 4.97

variantDescription: E4C
protein stability index: 3.93

variantDescription: V21Q
protein stability index: 4.39

variantDescription: Q18L
protein stability index: 3.89
